assay: S. cerevisiae RM11-1a growth modifiers, primary screen, strain RM11-1a, OD600, basal, 24 h (AID 1177); conditions: OD600, 24 h, higher = more signal, called active from +8 up or from −8 down;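 note: cultures grown under basal conditions with no added stressor; test concentration not given here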
// z-score lookup, one value per entry
Hey, just send me the number, nothing else.

Reference set (5 entries):
Look up and state reported z-score for CN1C(=O)C2C=CC(C(O)COCc3ccccc3)N(N(c3ccccc3)c3ccccc3)C2C1=O (stereo unspecified)
0.591

Look up and state reported z-score for "COCCOC(=O)N1C(=O)[C@@]2(c3cc(C#CC4=CCCCC4)ccc31)[C@H](C(N)=O)[C@H]1C(=O)O[C@H](c3ccccc3)[C@H](c3ccccc3)N1[C@@H]2c1ccccc1OCCO"
1.23

Look up and state reported z-score for "C=C(COC)/C(=C/C[C@H](OC(C)=O)c1ccc(OCCO)cc1)c1cc(C(=O)OC)ccc1OC"
-0.957

Look up and state reported z-score for "O=C(N1CCCCC1)[C@@]1(CCS(=O)(=O)c2ccccc2)COC(c2ccc(OCCCO)cc2)=N1"
-0.008

Look up and state reported z-score for "O=C1O[C@@H](c2ccccc2)[C@@H](c2ccccc2)N2[C@@H](c3ccc(O)cc3)[C@]3(C(=O)Nc4ccc(C#CC5(O)CCCCCC5)cc43)[C@@H](C(=O)NC[C@H](O)c3ccccc3)[C@H]12"
0.417

More entries:
Look up and state reported z-score for "C=CCNC(=O)[C@H]1[C@@H]2C(=O)O[C@@H](c3ccccc3)[C@@H](c3ccccc3)N2[C@@H](c2ccc(O)cc2)[C@]12C(=O)Nc1ccc(C#CC3(O)CCCCCC3)cc12"
-0.596

----------
// composite z-score lookup, one value per entry
target: Neurogenic locus notch homolog protein 2 (Homo sapiens) (UniProt Q04721); assay: Notch2 binders on small-molecule microarrays, primary screen, biochemical, small-molecule microarray, 635 nm fluorescence, stem cell growth factors (AID 1073); conditions: Notch2 binding, higher = more signal
Sequence (Q04721 whole entry, looked up): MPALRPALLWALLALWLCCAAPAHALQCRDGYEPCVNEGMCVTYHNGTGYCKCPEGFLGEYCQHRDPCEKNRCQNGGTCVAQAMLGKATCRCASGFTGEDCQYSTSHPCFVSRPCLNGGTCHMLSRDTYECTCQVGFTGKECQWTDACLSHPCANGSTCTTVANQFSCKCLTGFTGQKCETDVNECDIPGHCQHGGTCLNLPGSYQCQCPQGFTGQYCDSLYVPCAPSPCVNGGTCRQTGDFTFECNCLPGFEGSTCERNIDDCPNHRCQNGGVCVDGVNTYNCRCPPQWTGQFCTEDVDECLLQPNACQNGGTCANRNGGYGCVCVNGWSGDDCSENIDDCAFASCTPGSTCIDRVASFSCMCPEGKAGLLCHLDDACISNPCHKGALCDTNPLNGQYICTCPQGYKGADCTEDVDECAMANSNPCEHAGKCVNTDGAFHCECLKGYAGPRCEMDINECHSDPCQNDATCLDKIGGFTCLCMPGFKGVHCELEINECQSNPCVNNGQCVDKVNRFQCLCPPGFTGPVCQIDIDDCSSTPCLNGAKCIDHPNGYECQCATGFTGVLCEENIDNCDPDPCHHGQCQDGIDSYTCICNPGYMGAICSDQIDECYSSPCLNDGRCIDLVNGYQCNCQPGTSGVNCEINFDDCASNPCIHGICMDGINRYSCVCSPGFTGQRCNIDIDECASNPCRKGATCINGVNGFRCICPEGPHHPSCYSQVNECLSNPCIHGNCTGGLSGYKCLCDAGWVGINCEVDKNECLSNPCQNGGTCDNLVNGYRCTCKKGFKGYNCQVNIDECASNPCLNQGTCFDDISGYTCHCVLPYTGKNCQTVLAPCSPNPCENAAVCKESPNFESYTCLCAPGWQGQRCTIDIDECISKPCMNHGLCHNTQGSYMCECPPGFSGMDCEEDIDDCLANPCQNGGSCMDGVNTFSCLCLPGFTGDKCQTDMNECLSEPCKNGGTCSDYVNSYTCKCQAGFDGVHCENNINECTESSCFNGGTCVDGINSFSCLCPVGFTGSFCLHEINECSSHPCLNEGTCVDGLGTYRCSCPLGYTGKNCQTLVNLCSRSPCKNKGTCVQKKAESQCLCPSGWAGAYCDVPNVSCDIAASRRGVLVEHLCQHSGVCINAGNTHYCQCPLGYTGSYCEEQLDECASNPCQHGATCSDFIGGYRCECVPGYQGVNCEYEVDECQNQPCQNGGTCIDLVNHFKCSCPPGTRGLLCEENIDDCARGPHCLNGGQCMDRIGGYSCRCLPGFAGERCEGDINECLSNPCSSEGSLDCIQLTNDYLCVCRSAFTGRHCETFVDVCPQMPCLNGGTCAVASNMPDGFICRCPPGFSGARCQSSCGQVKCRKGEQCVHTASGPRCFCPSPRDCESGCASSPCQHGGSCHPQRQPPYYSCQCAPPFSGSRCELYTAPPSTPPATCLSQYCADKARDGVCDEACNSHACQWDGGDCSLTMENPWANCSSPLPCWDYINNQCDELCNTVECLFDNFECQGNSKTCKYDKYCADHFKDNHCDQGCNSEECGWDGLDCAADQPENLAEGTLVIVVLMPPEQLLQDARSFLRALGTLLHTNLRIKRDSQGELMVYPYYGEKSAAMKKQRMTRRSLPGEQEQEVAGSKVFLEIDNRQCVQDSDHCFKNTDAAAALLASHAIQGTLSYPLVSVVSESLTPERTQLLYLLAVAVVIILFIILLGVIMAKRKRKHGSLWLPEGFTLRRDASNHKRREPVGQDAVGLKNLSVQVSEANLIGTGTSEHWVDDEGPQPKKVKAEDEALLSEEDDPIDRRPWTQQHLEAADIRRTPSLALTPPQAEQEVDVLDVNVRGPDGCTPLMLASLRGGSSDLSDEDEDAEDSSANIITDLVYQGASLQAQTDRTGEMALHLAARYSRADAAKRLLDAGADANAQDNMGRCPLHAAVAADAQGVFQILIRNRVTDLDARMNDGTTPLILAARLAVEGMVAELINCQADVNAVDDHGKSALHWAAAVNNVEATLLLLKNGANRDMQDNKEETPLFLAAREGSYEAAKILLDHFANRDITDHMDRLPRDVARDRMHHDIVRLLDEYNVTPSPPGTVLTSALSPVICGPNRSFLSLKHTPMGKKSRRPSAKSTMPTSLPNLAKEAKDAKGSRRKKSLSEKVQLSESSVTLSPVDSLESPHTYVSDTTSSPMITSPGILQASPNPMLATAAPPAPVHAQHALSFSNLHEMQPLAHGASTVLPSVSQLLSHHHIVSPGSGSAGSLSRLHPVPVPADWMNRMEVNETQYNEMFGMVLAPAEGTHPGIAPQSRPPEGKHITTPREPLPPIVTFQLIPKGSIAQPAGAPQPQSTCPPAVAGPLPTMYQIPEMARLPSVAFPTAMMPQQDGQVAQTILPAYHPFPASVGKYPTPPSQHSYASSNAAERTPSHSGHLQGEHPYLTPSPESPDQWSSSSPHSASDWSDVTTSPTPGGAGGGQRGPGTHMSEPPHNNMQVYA
Hey, just send me the number, nothing else.

Look up and state reported composite z-score for "COC(=O)[C@@]1(Cc2ccc(F)cc2)[C@H]2c3cc(C(=O)N4CCCC4)n(CCc4ccc(O)c(O)c4)c3C[C@H]2CN1C(=O)c1ccccc1"
1.38

Look up and state reported composite z-score for "CN(C)C(=O)[C@@]1(CCS(=O)(=O)c2ccccc2)N=C(c2ccc(OCCCO)cc2)O[C@H]1c1ccccc1"
1.35

Look up and state reported composite z-score for "CCCC[C@@H]1C[C@H]1[C@@H](NC(=O)c1cccs1)c1ccc(C(F)(F)F)cc1"
-0.845

More entries:
Look up and state reported composite z-score for CN1C(=O)C2C=CC(C(O)c3ccc(F)cc3)N(Nc3ccccc3)C2C1=O (centres undefined)
1.24

Look up and state reported composite z-score for CC(C)C(CO)N1C(=O)[C@@H]2C3C(=O)OCCC/C=C\[C@H]3OC23C=CCN(C(C)(C)C)C(=O)[C@@H]13 (some centres undefined)
-1.02

Look up and state reported composite z-score for "CC(C)(C)OC(=O)CC[C@@]1(C(=O)NCc2ccccc2)N=C(c2ccc(OCCCO)cc2)O[C@@H]1c1ccccc1N=[N+]=[N-]"
1.64

Look up and state reported composite z-score for "Cc1ccc(S[C@]2(C(=O)NCC(F)(F)F)CC(=O)N(Cc3ccccc3C(F)(F)F)[C@@H]2c2ccc(CO)cc2I)cc1"
-1.15

Look up and state reported composite z-score for CCC(CC)C(O)C1C=CC2C(=O)N(c3ccccc3)C(=O)C2N1Nc1ccc(C(C)C)cc1 (centres undefined)
1.64

----------
test system: PRMT1 (protein arginine N-methyltransferase 1); assay: PRMT1 binders on small-molecule microarrays, primary screen, biochemical, small-molecule microarray, 635 nm fluorescence (AID 1088); details: small-molecule microarray binding, higher = more signal;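 note: binding of Prmt1 protein to compounds spotted on small-molecule microarray slides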
measurementLabel: composite z-score

Reference set (10 entries):
Look up and state reported composite z-score for "C=C(C(=O)CC[C@@H](OC(C)=O)c1ccc(CO)o1)C(C)C"
1.2

Look up and state reported composite z-score for "C[N+](C)(C)CCCCCCNC(=O)[C@H]1C[C@H]2C(=O)NCC(=O)N2[C@H]1c1ccc(O)cc1"
1.46

Look up and state reported composite z-score for CCOC(=O)C1CCCCN1 (stereo unspecified)
1.08

Look up and state reported composite z-score for "NCCCCCCNC(=O)[C@@H]1C[C@@H]2C(=O)N[C@@H](CCCCN)C(=O)N2[C@@H]1c1cccc(OCCO)c1"
1.28

Look up and state reported composite z-score for "COc1cc2c(cc1OC)CN(C(=O)[C@@H]1[C@H]3C(=O)O[C@H](c4ccccc4)[C@H](c4ccccc4)N3[C@H](c3ccc(OCCO)cc3)[C@@]13C(=O)Nc1ccc(C#CC4(O)CCCCCC4)cc13)CC2"
1.54

Look up and state reported composite z-score for "C=CC[C@]1(C(=O)O)COC(c2ccc(OCCCO)cc2)=N1"
0.262

Look up and state reported composite z-score for O=C1NC(=O)C2C1C=CC(C(O)CCc1ccccc1)N2Nc1ccc(Cl)cc1Cl (stereo unspecified)
0.23

Look up and state reported composite z-score for "O=C1O[C@@H](c2ccccc2)[C@@H](c2ccccc2)N2[C@@H](c3ccccc3OCCO)[C@]3(C(=O)Nc4ccc(C#CCCO)cc43)[C@@H](C(=O)N3CCCCCCC3)[C@H]12"
1.53

Look up and state reported composite z-score for CCOc1cc(C(O)C2C=CC3C(=O)N(C)C(=O)C3N2Nc2ccccc2)ccc1O (stereo unspecified)
1.13

Look up and state reported composite z-score for "CC1=C([C@H](O)CCc2ccccc2)[C@H](CO)[C@@H]2C(=O)N(C)C(=O)[C@@H]2C1"
0.958

More entries:
Look up and state reported composite z-score for "CCOC(=O)C[C@H]1[C@H](OC(=O)c2cc3ccccc3oc2=O)[C@@H](NC(=O)c2ccc(-c3ccccc3)cc2)c2cc(OCCCO)ccc2N1C(=O)c1ccccc1"
1.02

Look up and state reported composite z-score for CN1C(=O)C2C=CC(C(O)C#Cc3ccccc3)N(Nc3ccccc3)C2C1=O (stereo unspecified)
1.54

Look up and state reported composite z-score for "CC(C)C(=C=CC[C@H](O)c1ccc(OCCO)cc1)C[C@H](O)c1ccccn1"
1.52

Look up and state reported composite z-score for "C=C(/C(=C/C[C@H](OC(=O)c1ccncc1)c1ccc(CO)o1)c1cc(C(=O)OC)ccc1OC)C(C)C"
1.44

Look up and state reported composite z-score for COc1cc2c(cc1O)C(C)N(Cc1ccc([N+](=O)[O-])o1)CC2 (stereo unspecified)
1.56

Look up and state reported composite z-score for "[N-]=[N+]=NCc1ccccc1C[C@]1(C(N)=O)N=C(c2ccc(OCCCO)cc2)O[C@H]1c1ccccc1"
1.31

Look up and state reported composite z-score for "O=C1O[C@H](c2ccccc2)[C@H](c2ccccc2)N2[C@H]1[C@@H](C(=O)O)[C@]1(C(=O)Nc3ccc(C#CC4=CCCCC4)cc31)[C@H]2c1ccc(O)cc1"
1.54

Look up and state reported composite z-score for C=C(C)C1CCC(C(O)C2C=CC3C(=O)N(C)C(=O)C3N2N2CCCCC2)CC1 (stereo unspecified)
1.53

Look up and state reported composite z-score for O=C1C2C=CC(C(O)c3ccc(F)cc3)N(n3cnnc3)C2C(=O)N1Cc1ccccc1 (stereo unspecified)
-0.301

----------
system: Human papillomavirus type 1a E7 protein (residues 1-88); test: HPV1a E7 small-molecule binders, primary screen, biochemical, small-molecule microarray, residues 1-88, 635 nm (AID 1129); details: small-molecule microarray binding, fluorescence 635 nm; higher = more signal
Binary call on composite z-score: rule met from 0.4 upward, rule not met beneath that.

Quick check: does "CC(=O)NCCCC[C@@H]1NC(=O)[C@H]2C[C@@H](C(=O)NCCCC[N+](C)(C)C)[C@@H](c3cccc(OCCO)c3)N2C1=O" have composite z-score greater than or equal to 0.4?
rule not met

Quick check: does CCOc1cc(C(O)C2C=CC3C(=O)N(C)C(=O)C3N2Nc2ccccc2)ccc1O (centres undefined) have composite z-score greater than or equal to 0.4?
rule met

Quick check: does O=C1C2C=CC(C(O)c3ccc(F)cc3)N(n3cnnc3)C2C(=O)N1Cc1ccccc1 (centres undefined) have composite z-score greater than or equal to 0.4?
rule not met

Quick check: does "CN(C)C(=O)[C@]1(CCS(=O)(=O)c2ccccc2)N=C(c2ccc(OCCCO)cc2)O[C@@H]1c1ccccc1N=[N+]=[N-]" have composite z-score greater than or equal to 0.4?
rule met

Quick check: does "CCCNC(=O)[C@@H]1c2ccccc2C(=O)N(C(C)C)[C@H]1c1ccc(CO)cc1" have composite z-score greater than or equal to 0.4?
rule not met

Quick check: does C=CCC(OC(C)=O)[C@@H]1[C@@H](N(Cc2ccc(-c3cccc(C(F)(F)F)c3)o2)C(=O)c2ccc(-c3ccccc3)cc2)c2cc(OCCCO)ccc2N1C(=O)c1ccc2ccccc2n1 (some centres undefined) have composite z-score greater than or equal to 0.4?
rule not met

Quick check: does "NC(=O)NCC#Cc1ccc2c(c1)[C@]1(C(=O)N2)[C@H](C(=O)NC[C@H](O)c2ccccc2)[C@H]2C(=O)O[C@H](c3ccccc3)[C@H](c3ccccc3)N2[C@@H]1c1ccc(OCCO)cc1" have composite z-score greater than or equal to 0.4?
rule met

Quick check: does NC(=O)N1C(=O)C2C(C1=O)C1C=C(CCCO)C2C(c2cccs2)N1Cc1cccc(OC(F)(F)F)c1 (centres undefined) have composite z-score greater than or equal to 0.4?
rule met

More entries:
Quick check: does "COc1ccc([Si](C)(C)[C@H]2[C@H](CCn3cc([C@H](O)c4ccccc4)nn3)O[C@@]3(C(=O)N(Cc4ccc(N5C(=O)c6cccc7cccc5c67)cc4)c4ccccc43)[C@@H]2C)cc1" have composite z-score greater than or equal to 0.4?
rule not met

Quick check: does "C=C(/C(=C/C[C@H](OC(C)=O)c1cccc(OCCO)c1)c1cnc2ccccc2c1)C(C)C" have composite z-score greater than or equal to 0.4?
rule met

Quick check: does "COCCOC(=O)N1C(=O)[C@@]2(c3cc(C#CC4=CCCCC4)ccc31)[C@H](c1ccc(OCCO)cc1)N1[C@H](c3ccccc3)[C@H](c3ccccc3)OC(=O)[C@H]1[C@@H]2C(=O)NC[C@H](O)c1ccccc1" have composite z-score greater than or equal to 0.4?
rule met

Quick check: does "COC(=O)CCCCCCC(=O)Nc1ccc(NC(=O)CCCC[P+](c2ccccc2)(c2ccccc2)c2ccccc2)cc1" have composite z-score greater than or equal to 0.4?
rule not met

Quick check: does "O=C1O[C@@H](c2ccccc2)[C@@H](c2ccccc2)N2[C@@H](c3ccc(O)cc3)[C@]3(C(=O)Nc4ccc(C#CC5(O)CCCCCC5)cc43)[C@@H](C(=O)NC[C@H](O)c3ccccc3)[C@H]12" have composite z-score greater than or equal to 0.4?
rule met

Quick check: does "COCCCNC(=O)[C@]1(CCS(=O)(=O)c2ccccc2)N=C(c2ccc(OCCCO)cc2)O[C@@H]1c1ccccc1CN=[N+]=[N-]" have composite z-score greater than or equal to 0.4?
rule met
